# method_description: qHTS for Inhibitors of Inflammasome Signaling: IL-1-beta AlphaLISA Primary Screen; also: % is scaled to controls: 0 for no effect and ±100 for the full control effect
# condition_parameters: THP-1 LPS/ATP IL-1B secretion, 16 h; at 57.5 µM
Among all 360,000 compounds or so, about 17,000 (4.7%) were called active. Not shown: some 5% with an inconclusive outcome. Rule as the data show it: active = activity change below about -50%; inconclusive = mostly about -30% to -49%; inactive = weaker than that. This is one part of a sample in which actives are shown more often than they occur.
The reply should be one of these categories: 1 (active), -1 (inactive)

Worked examples, 3 molecules total:
molecule | category_label
Cn1c(NCc2cccnc2)nc2cc(-c3ccc(F)cc3)sc2c1=O | -1
CCCCC(C(=O)OCC(=O)c1ccc(OC)cc1)N1C(=O)c2ccccc2C1=O (stereo not drawn) | 1
COc1cccc(-c2cc(NC(C)=O)c3ncc(-c4cccc(C(C)=O)c4)n3c2)c1 | -1

Query: // outcome(item) with item = "CCN(C(=O)Nc1cccc2ccccc12)c1ccccc1"
Result: -1

Query: // outcome(item) with item = CCCCn1nnnc1C(c1cccc(OC)c1OC)N1CCN(C/C=C/c2ccccc2)CC1 (stereo not drawn)
Result: -1

Query: // outcome(item) with item = COCc1ccc(C(=O)N2CCc3c([nH]c4ccccc34)C2c2ccccn2)s1 (stereo not drawn)
Result: 1

Query: // outcome(item) with item = "CC(C)[C@@H](C(=O)OCC(=O)c1ccc2c(c1)NC(=O)CO2)N1C(=O)c2ccccc2C1=O"
Result: -1

Query: // outcome(item) with item = O=C(c1cn2ccccc2n1)N1CCc2c([nH]c3ccccc23)C1c1ccccn1 (stereo not drawn)
Result: -1

Query: // outcome(item) with item = CCCc1cc(=O)oc2c(C)c(OC(C)C(=O)NCC(O)c3ccccc3)ccc12 (stereo not drawn)
Result: -1

Query: // outcome(item) with item = CC(OC(=O)CNC(=O)c1ccco1)C(=O)Nc1ccc(Cl)cn1 (stereo not drawn)
Result: -1

Query: // outcome(item) with item = "c1ccc(CNc2ncnc3[nH]ncc23)cc1"
Result: -1

Query: // outcome(item) with item = "CCCCc1nc(SCC(=O)Nc2nnc(C(C)C)s2)n[nH]1"
Result: -1

Query: // outcome(item) with item = "CCOCCCn1c(NN)nc2ccccc2c1=O"
Result: -1

Query: // outcome(item) with item = CCCCN1C(=O)C(CC(=O)NCc2cccs2)CC(C(=O)N2CCOCC2)=C1C (stereo not drawn)
Result: -1

Query: // outcome(item) with item = "CC1(C)CCSC(/C=C/c2ccccc2)=N1"
Result: 1
